- targetOrTestSystem: human ANO6 (Homo sapiens)
- Construct: expressed in transfected cells
- Sequence (Q4KMQ2 1-931 isoform Q4KMQ2-2): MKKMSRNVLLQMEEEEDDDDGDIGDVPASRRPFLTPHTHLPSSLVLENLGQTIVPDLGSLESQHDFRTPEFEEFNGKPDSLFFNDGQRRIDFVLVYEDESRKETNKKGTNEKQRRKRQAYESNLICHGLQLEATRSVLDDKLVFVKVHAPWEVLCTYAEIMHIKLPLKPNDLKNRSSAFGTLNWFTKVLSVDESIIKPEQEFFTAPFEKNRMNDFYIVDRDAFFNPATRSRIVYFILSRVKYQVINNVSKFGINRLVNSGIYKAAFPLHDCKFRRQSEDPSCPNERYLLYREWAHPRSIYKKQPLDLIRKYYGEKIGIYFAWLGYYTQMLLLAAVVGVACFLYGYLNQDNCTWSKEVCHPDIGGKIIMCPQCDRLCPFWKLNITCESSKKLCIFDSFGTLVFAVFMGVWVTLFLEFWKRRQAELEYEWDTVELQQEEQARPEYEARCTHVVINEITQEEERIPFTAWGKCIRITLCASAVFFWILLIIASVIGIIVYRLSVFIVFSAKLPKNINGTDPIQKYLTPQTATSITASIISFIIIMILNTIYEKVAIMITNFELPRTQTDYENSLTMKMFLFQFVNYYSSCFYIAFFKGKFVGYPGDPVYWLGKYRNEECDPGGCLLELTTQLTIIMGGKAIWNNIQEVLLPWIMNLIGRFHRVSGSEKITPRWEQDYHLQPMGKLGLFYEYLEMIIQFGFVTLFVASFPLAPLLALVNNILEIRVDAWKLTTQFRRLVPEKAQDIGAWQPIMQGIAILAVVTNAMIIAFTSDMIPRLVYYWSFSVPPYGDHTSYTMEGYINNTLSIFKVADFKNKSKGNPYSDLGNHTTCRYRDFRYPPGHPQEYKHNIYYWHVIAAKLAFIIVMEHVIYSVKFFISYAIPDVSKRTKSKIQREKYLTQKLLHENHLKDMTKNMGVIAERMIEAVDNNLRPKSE
- methodNotes: YFP quenching assay (ANO6 ion channel activity)
- Format: cell-based
- experimentalSetup: test compound 1 μM, 10 μM ionomycin, read-out: Inhibition Level 1 μM
attributeMeasured: inhibition at 1 µM

Look over these answered cases.
input: Tell me its inhibition at 1 µM on human ANO6 (Homo sapiens): Cc1ccc(CNC(=O)c2cccc(Nc3ccc(-c4cccnc4)nn3)c2)o1 [Compound 10]
output: ≥ 60%

input: Enter recorded inhibition at 1 µM with human ANO6 (Homo sapiens) for CSc1ccc(CNC(=O)c2cccc(Nc3ccc(-c4ccc(F)cc4)nn3)c2)cc1 [Compound A27] here.
output: 30 to 60%

input: Provide human ANO6 (Homo sapiens) inhibition at 1 µM reading for COCCCNC(=O)c1cccc(Nc2ccc(-c3ccccc3)nn2)c1 [Compound A69] .
output: 30 to 60%

input: For human ANO6 (Homo sapiens), give the measured inhibition at 1 µM of the entry O=C(Nc1ccc2c(c1)OCO2)c1cccc(Nc2ncc(-c3cccc(F)c3)cn2)c1 [Compound A85]
output: ≥ 60%

New cases:
input: Would you please give the reported inhibition at 1 µM of O=C(NCCC1CCCCC1)c1cccc(Nc2ncc(-c3ccccc3)cn2)c1 [Compound 81] with human ANO6 (Homo sapiens)?
output: ≥ 60%

input: Fill: inhibition at 1 µM (human ANO6 (Homo sapiens)) for this compound Cc1ccc(CNC(=O)c2cccc(Nc3ccc(-c4ccccc4)nn3)c2)o1 [Compound A8]
output: ≥ 60%

input: // fetch inhibition at 1 µM; item: COc1ccc(CNC(=O)c2cccc(Nc3ccc(-c4ccccc4)nn3)c2)c(OC)c1 [Compound A61] ; system: human ANO6 (Homo sapiens)
output: 30 to 60%

input: Look up human ANO6 (Homo sapiens) data: inhibition at 1 µM of COc1ccc(CNC(=O)c2cccc(Nc3ccc(-c4ccccc4)nn3)c2)cc1 [Compound A77] , then report it.
output: ≥ 60%

input: Please indicate recorded inhibition at 1 µM of O=C(Nc1ccc(N2CCOCC2)cc1)c1cccc(Nc2ncc(-c3cccc(F)c3)cn2)c1 [Compound A84] measured with human ANO6 (Homo sapiens).
output: ≥ 60%

* * *

Reported inhibition at 1 µM values are given for each entry in this list.
- targetOrTestSystem: human ANO6 (Homo sapiens, UniProt Q4KMQ2)
- Construct: expressed in transfected cells
- Sequence (Q4KMQ2 1-931 isoform Q4KMQ2-2): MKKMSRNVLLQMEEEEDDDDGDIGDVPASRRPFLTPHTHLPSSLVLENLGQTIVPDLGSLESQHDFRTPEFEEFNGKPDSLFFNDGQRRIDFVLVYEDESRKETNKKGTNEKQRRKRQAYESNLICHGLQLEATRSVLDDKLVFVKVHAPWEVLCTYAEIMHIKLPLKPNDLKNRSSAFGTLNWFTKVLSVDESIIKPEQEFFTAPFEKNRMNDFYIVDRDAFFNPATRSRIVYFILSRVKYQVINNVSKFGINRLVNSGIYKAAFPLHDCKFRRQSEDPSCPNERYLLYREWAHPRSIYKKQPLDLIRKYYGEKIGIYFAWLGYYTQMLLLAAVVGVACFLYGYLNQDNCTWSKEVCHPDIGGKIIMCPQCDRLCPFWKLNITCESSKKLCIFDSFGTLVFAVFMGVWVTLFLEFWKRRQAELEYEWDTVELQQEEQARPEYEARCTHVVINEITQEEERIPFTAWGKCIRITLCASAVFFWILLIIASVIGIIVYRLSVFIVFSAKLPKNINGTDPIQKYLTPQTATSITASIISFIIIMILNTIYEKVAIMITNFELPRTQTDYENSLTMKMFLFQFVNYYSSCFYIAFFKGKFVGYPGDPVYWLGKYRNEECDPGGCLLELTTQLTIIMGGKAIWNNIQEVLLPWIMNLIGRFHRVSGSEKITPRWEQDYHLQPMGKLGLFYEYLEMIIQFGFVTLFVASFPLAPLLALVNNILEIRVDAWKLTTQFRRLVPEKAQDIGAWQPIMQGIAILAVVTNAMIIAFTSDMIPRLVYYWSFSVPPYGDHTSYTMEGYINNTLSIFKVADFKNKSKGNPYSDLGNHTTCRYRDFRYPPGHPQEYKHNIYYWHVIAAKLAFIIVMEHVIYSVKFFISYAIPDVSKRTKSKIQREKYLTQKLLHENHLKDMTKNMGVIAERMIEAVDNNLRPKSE
- methodNotes: YFP quenching assay (ANO6 ion channel activity)
- Assay type: cell-based
- experimentalSetup: test compound 1 μM, 10 μM ionomycin, read-out: Inhibition Level 1 μM

input: State its inhibition at 1 µM for this molecule: CCCCNC(=O)c1cccc(Nc2ccc(-c3ccccc3)nn2)c1
output: ≥ 60%

input: For Cc1ccc(CNC(=O)c2cccc(Nc3cccc(-c4ccccc4)c3)c2)o1 , write its inhibition at 1 µM.
output: < 30%

input: // fetch inhibition at 1 µM given entry O=C(NCCN1CCCCC1)c1cccc(Nc2ccc(-c3ccccc3)nn2)c1
output: < 30%

input: Item O=C(NC1CCCCC1)c1cccc(Nc2ccc(-c3ccccc3)nn2)c1 : provide inhibition at 1 µM
output: 30 to 60%

input: Report inhibition at 1 µM, nothing else, for this molecule: O=C(NCCCc1ccccc1)c1cccc(Nc2ncc(-c3cccc(F)c3)cn2)c1
output: ≥ 60%

Further cases:
input: Recall and state the measured inhibition at 1 µM for Cc1ccc(CNC(=O)c2cccc(Nc3ncc(-c4ccc(C(F)(F)F)cc4)cn3)c2)o1 .
output: < 30%

input: Consider the molecule O=C(NCc1ccc(F)cc1)c1cccc(Nc2ccc(-c3ccccc3)nn2)c1 and give its recorded inhibition at 1 µM.
output: ≥ 60%

input: Return the recorded inhibition at 1 µM value; entry: CCCCCNC(=O)c1cccc(Nc2ccc(-c3ccccc3)nn2)c1
output: ≥ 60%

input: State, in one line, measured inhibition at 1 µM of Cc1ccc(C(C)NC(=O)c2cccc(Nc3ccc(-c4ccccc4)nn3)c2)cc1 (stereo not shown)
output: ≥ 60%

input: Please list inhibition at 1 µM recorded for the molecule CCN(CC)c1ccc(CNC(=O)c2cccc(Nc3ccc(-c4ccccc4)nn3)c2)cc1
output: ≥ 60%

input: Output inhibition at 1 µM of Cc1ccc(CNC(=O)c2cccc(Nc3ccc(-c4ccccc4)cn3)c2)o1
output: ≥ 60%

input: // fetch inhibition at 1 µM given entry CCNC(=O)c1cccc(Nc2ccc(-c3ccccc3)nn2)c1
output: 30 to 60%

input: Report inhibition at 1 µM for Cc1ccc(CNC(=O)c2cccc(Nc3ccc(-c4cccc(F)c4)cn3)c2)o1
output: ≥ 60%

input: Please look at this molecule and report its inhibition at 1 µM: O=C(NCc1ccccc1)c1cccc(Nc2ccc(-c3cccc(F)c3)nn2)c1
output: ≥ 60%

input: Quick one: give measured inhibition at 1 µM for Cc1ccc(CNC(=O)c2cccc(Nc3ccc(-c4c(C)noc4C)nn3)c2)o1
output: < 30%

input: Supply reported inhibition at 1 µM belonging to this molecule: CCOc1ccc(NC(=O)c2cccc(Nc3ccc(-c4ccccc4)nn3)c2)cc1
output: ≥ 60%

input: Answer with the recorded inhibition at 1 µM for the molecule listed here: O=C(N[C@@H]1C[C@H]1c1ccccc1)c1cccc(Nc2ccc(-c3ccccc3)nn2)c1
output: ≥ 60%

input: Kindly indicate its recorded inhibition at 1 µM. Item: O=C(NCc1cccnc1)c1cccc(Nc2ccc(-c3ccccc3)nn2)c1
output: 30 to 60%

input: Please give measured inhibition at 1 µM of the following entry: CCOC(=O)c1ccc(-c2cnc(Nc3cccc(C(=O)NCc4ccc(C)o4)c3)nc2)cc1
output: < 30%

input: Specify reported inhibition at 1 µM for the molecule shown: O=C(NCc1ccc2c(c1)OCO2)c1cccc(Nc2ccc(-c3ccccc3)nn2)c1
output: 30 to 60%

input: Supply reported inhibition at 1 µM belonging to this molecule: O=C(NCCc1ccc2c(c1)OCO2)c1cccc(Nc2ncc(-c3ccccc3)cn2)c1
output: 30 to 60%

input: Look up and state reported inhibition at 1 µM for O=C(Nc1cccc(F)c1)c1cccc(Nc2ncc(-c3ccccc3)cn2)c1
output: ≥ 60%

input: Answer with the recorded inhibition at 1 µM of Cc1ccc(CNC(=O)c2cccc(Nc3ncc(-c4ccc(C(=O)O)cc4)cn3)c2)o1 only.
output: < 30%
